Measured values drawn from ChEMBL document CHEMBL1177681 for this set.

compounds and their reported selectivity ratio
Test: Selectivity index, CC50 for human MT4 cells to EC50 for wild type HIV1 3B
Type: toxicity, cell-based
Settings: read-out: Ratio CC50/EC50
ASSAY READOUT: selectivity ratio

In [3]: df
Out[3]:
                           structure_string      assay_readout  observed_result
0  COc1ccccc1Oc1nc(Nc2ccc(C#N)cc2)nc2ccccc12  selectivity ratio             1260
1   N#Cc1ccc(Nc2nc(Oc3ccccc3)c3ccccc3n2)cc1  selectivity ratio            > 279
2  Cc1cc(C#N)cc(C)c1Oc1nc(Nc2ccc(C#N)cc2)nc2ccc(Cl)cc12  selectivity ratio            13800
3  Cc1cccc(Oc2nc(Nc3ccc(C#N)cc3)nc3ccccc23)c1  selectivity ratio            > 436
4  N#Cc1ccc(Nc2nc(Oc3c(Br)cc(Br)cc3Br)c3ccccc3n2)cc1  selectivity ratio             2120
5  N#Cc1ccc(Nc2nc(Oc3ccc(Cl)cc3)c3ccccc3n2)cc1  selectivity ratio             1040
6  Cc1ccc(Oc2nc(Nc3ccc(C#N)cc3)nc3ccccc23)cc1  selectivity ratio              831

###

Assay: Cytotoxicity against human MT4 cells after 4 days by MTT assay
Assay type: cell-based
ASSAY READOUT: CC50 at 96 h (µM)

In [3]: df
Out[3]:
                           structure_string  censoring_sign  observed_result
0  CCOc1cc(C#N)cc(Cl)c1Oc1nc(Nc2ccc(C#N)cc2)nc2ccccc12               =               22
1  Cc1cccc(Oc2nc(Nc3ccc(C#N)cc3)nc3ccccc23)c1               =              355
2  N#Cc1ccc(Nc2nc(Oc3ccc(F)cc3)c3ccccc3n2)cc1               >              351
3  COc1ccc(Oc2nc(Nc3ccc(C#N)cc3)nc3ccccc23)cc1               =              340
4  N#Cc1ccc(Nc2nc(Oc3ccc(Br)cc3)c3ccccc3n2)cc1               =              215
5  Cc1cc(Br)cc(Br)c1Oc1nc(Nc2ccc(C#N)cc2)nc2ccccc12               =              150

###

compounds and their reported CC50 at 96 h
Assay: Cytotoxicity against human MT4 cells after 4 days by MTT assay
Assay type: cell-based
ASSAY READOUT: CC50 at 96 h (µM)

>>> print(df.to_string())
                           structure_string  censoring_sign  observed_result
0  CCCOc1cc(C#N)cc(OCC)c1Oc1nc(Nc2ccc(C#N)cc2)nc2ccccc12               =              123
1           Cc1ccnc2c1NC(=O)c1cccnc1N2C1CC1               ≥               15
2  Cc1ccc(Oc2nc(Nc3ccc(C#N)cc3)nc3ccccc23)cc1               =               87
3   N#Cc1ccc(Nc2nc(Oc3ccccc3)c3ccccc3n2)cc1               =              370
4  CCCOc1cc(C#N)cc(OC)c1Oc1nc(Nc2ccc(C#N)cc2)nc2ccccc12               =              5.2
5  N#Cc1ccc(Nc2nc(Oc3c(Br)cc(Br)cc3Br)c3ccccc3n2)cc1               =               58
6  N#Cc1ccc(Nc2nc(Oc3ccc(Cl)cc3)c3ccccc3n2)cc1               =              198
7  Cc1cc(C#N)cc(C)c1Oc1nc(Nc2ccc(C#N)cc2)nc2ccc(Cl)cc12               =              117

###

Test: Cytotoxicity against human MT4 cells after 4 days by MTT assay
Assay type: cell-based
molecules and their reported CC50 at 96 h
ASSAY READOUT: CC50 at 96 h

>>> df
                           structure_string  assay_readout  observed_result
0  COc1cc(C#N)ccc1Oc1nc(Nc2ccc(C#N)cc2)nc2ccccc12   CC50 at 96 h         ≥ 140 µM
1  Cc1cc(C)c(Oc2nc(Nc3ccc(C#N)cc3)nc3ccccc23)c(C)c1   CC50 at 96 h          > 34 µM
2  CC(C)Nc1cccnc1N1CCN(C(=O)c2cc3cc(NS(C)(=O)=O)ccc3[nH]2)CC1   CC50 at 96 h          > 43 µM
